Recorded values, source PubChem BioAssay (NCATS).

biological target: Atrial natriuretic peptide receptor 2 (Homo sapiens); test: Natriuretic polypeptide receptor (hNpr2) antagonism - Pilot subtype selectivity assay (AID 1347050); details: NPR2-expressing cells, cGMP antagonist-mode read-out; series mostly up to 38.3 µM
Results filed as inconclusive are left out. Active and inactive are the calls of the source. Calls come from the whole dose curve.
Choose the fitting class; nothing outside active, inactive is accepted.

Recorded test outcome, item N=c1ccn2c(n1)O[C@H]1[C@H](O)[C@@H](CO)O[C@H]12
inactive

Recorded test outcome, item COc1cc(C(O)CO)ccc1OS(=O)(=O)O (configuration not stated)
inactive

Recorded test outcome, item NC[C@@H]1O[C@H](C23CC4CC(CC(C4)C2)C3)Cc2c1ccc(O)c2O
inactive

Recorded test outcome, item CCCCC#Cc1nc(NC)c2ncn([C@@H]3O[C@H](CO)[C@@H](O)[C@H]3O)c2n1
inactive

Recorded test outcome, item O=[N+]([O-])c1ccc(CSc2ncnc3c2ncn3[C@@H]2O[C@H](CO)[C@@H](O)[C@H]2O)cc1
inactive

Recorded test outcome, item C[N+](C)(C)CCOP(=O)(O)OP(=O)([O-])OC[C@H]1O[C@@H](n2ccc(N)nc2=O)[C@H](O)[C@@H]1O
inactive

Recorded test outcome, item N#C/C(=C\c1c[nH]c2ccccc12)C(=O)c1ccc(O)c(O)c1
inactive

Recorded test outcome, item c1cnc2c(c1)ccc1cccnc12
inactive

Recorded test outcome, item CC(C)ON([C@@H](C(=O)NO)C(C)C)S(=O)(=O)c1ccc(-c2ccccc2)cc1
inactive

Recorded test outcome, item CO/N=C(\C(=O)N[C@@H]1C(=O)N2C(C(=O)O)=C(COC(C)=O)CS[C@H]12)c1csc(N)n1
inactive

Recorded test outcome, item CN1CCc2cc(NC(=O)Nc3cccnc3)ccc21
inactive

Recorded test outcome, item C[N+]1(C)CCC(OC(=O)C(c2ccccc2)c2ccccc2)CC1
inactive

Recorded test outcome, item CN(C)c1nc2c(Br)c(Br)c(Br)c(Br)c2[nH]1
inactive

Recorded test outcome, item O=C(c1ccc(OCCCc2cnc[nH]2)cc1)C1CC1
inactive

Recorded test outcome, item CCCCCCCCCCCCCCCCCCNC(=O)OCC(COP(=O)([O-])OCC[n+]1ccsc1)OC (configuration not stated)
inactive

Recorded test outcome, item CNc1ncnc2c1ncn2[C@@H]1O[C@H](CO)[C@@H](O)[C@H]1O
inactive

Recorded test outcome, item NCCSSCCN
inactive

Recorded test outcome, item CCCN(CC1CC1)c1nc(C)nc(Nc2c(Cl)cc(Cl)cc2Cl)c1Cl
inactive

Recorded test outcome, item CC(C)NC[C@H](O)COc1cccc2[nH]ccc12
inactive

Recorded test outcome, item Cc1ccccc1CNc1ncnc2c1ncn2C1OC(CO)C(O)C1O (configuration not stated)
inactive

Recorded test outcome, item O=C(O)c1cc([N+](=O)[O-])ccc1NCCCc1ccccc1
inactive

Recorded test outcome, item O=C1C(SCCO)=C(SCCO)C(=O)c2ccccc21
active

* * *

assay: Cell Viability - LYMP2-012 (AID 982); settings: LYMP2-012 lymphoblastoid cell viability qHTS; series mostly up to 92.2 µM;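 note: cellular ATP by luciferase luminescence where a drop means cytotoxicity; cells exposed to compound for one day before reading; nearly all actives have a fitted effect of over 55% in size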
Records with an inconclusive call do not appear. The source made the active and inactive calls. The call rests on the fitted dose curve; in most records, active means well fitted cell-killing curve with a large enough effect; inconclusive means small, poorly fitted or top-dose-only effect; inactive means flat fitted curve, though single readings scatter.
Choose the fitting class; nothing outside 1 for active, -1 for inactive is accepted.

Recorded test outcome, item CN(C)c1ccc(C(=C2C=CC(=[N+](C)C)C=C2)c2ccccc2)cc1
1

Recorded test outcome, item C#C[C@]1(O)CC[C@H]2[C@@H]3CCc4cc(O)ccc4[C@H]3CC[C@@]21C
-1

Recorded test outcome, item N=C1N=C(N)c2cc3ccccc3cc21
1

Recorded test outcome, item CC(C)NCC(O)COc1cccc2ccccc12 (stereo not given)
-1

Recorded test outcome, item COc1cc(/C=C/C(=O)CC(=O)/C=C/c2ccc(O)c(OC)c2)ccc1O
1

Recorded test outcome, item CCCCCCCCCCCCCCCCCC(=O)O
-1

Recorded test outcome, item O=c1cc(-c2ccccc2)oc2ccccc12
-1

Recorded test outcome, item Nc1nc2ccc([N+](=O)[O-])cc2s1
-1

Recorded test outcome, item c1ccc2sc(SSc3nc4ccccc4s3)nc2c1
-1

Recorded test outcome, item CN1CCC[C@H]1c1cccnc1
-1

Recorded test outcome, item NCCO
-1

Recorded test outcome, item Nc1ccc(O)c([N+](=O)[O-])c1
-1

Recorded test outcome, item CCCOC(=O)c1ccc(O)cc1
-1

Recorded test outcome, item O=C(O)c1cc(O)c(O)c(O)c1
-1

Recorded test outcome, item S=c1[nH]c2ccccc2s1
-1
